The reported numbers originate from PubChem BioAssay AID686979.

- methodSummary: qHTS for Inhibitors of human tyrosyl-DNA phosphodiesterase 1 (TDP1): qHTS in cells in presence of CPT; note: nearly all actives have a fitted effect of over 55% in size
- measurementSetup: chicken DT40 Tdp1-/-;hTDP1 cells + 20 nM CPT, ATP luminescence, 48 h; series mostly up to 46.2 µM
The campaign covered roughly 420,000 compounds. About 50,000 (12%) were called active. Inconclusive results (about 26%) are left out. Calls come from the whole dose curve; as a rule, active = well fitted inhibition curve with a large enough effect; inconclusive = small, poorly fitted or top-dose-only effect; inactive = flat fitted curve, though single readings scatter. This is one part of a sample in which actives are shown more often than they occur.
// allowed return values: active, inactive

compound=COc1ccc(NC(=O)CN(C)C(=O)/C=C/c2cn(Cc3ccccc3)nc2-c2cccnc2)cc1 grouplabel=inactive
compound="Cc1ccccc1-c1cc(C(=O)NCC2CC2)n(CC2CC(c3cccnc3)=NO2)n1 (stereo not given)" grouplabel=inactive

In: Lab log entry: COCCNC(=O)C1CCN(S(=O)(=O)c2ccc3c(c2)OCCO3)CC1 — outcome as called in the assay?
Out: inactive

In: Lab log entry: Cc1cc(NC(=O)c2ccc(-c3ccc(Cl)cc3)o2)cc(-c2nc3ncccc3o2)c1O — outcome as called in the assay?
Out: inactive

In: Lab log entry: CC(OC(=O)/C=C/c1ccccc1)C(=O)NC1CCCCC1C (stereo not given) — outcome as called in the assay?
Out: inactive

In: Lab log entry: S=c1[nH]nc(COc2ccccc2)n1-c1ccccc1 — outcome as called in the assay?
Out: inactive

In: Lab log entry: Cc1ccc(/C=C/C(=O)OCC(=O)Nc2cccnc2Cl)cc1 — outcome as called in the assay?
Out: inactive

In: Lab log entry: Cc1ccc(OCc2n[nH]c(=S)n2-c2ccccc2)cc1 — outcome as called in the assay?
Out: inactive

In: Lab log entry: CC1CC(C)CN(S(=O)(=O)c2cccc(C(=O)N3C(=O)c4cccc(N)c4C3=O)c2)C1 (stereo not given) — outcome as called in the assay?
Out: inactive

In: Lab log entry: COC(=O)c1ccccc1NC(=O)C1CCN(S(=O)(=O)c2cc(OC)ccc2OC)CC1 — outcome as called in the assay?
Out: active
